- method-description: qHTS of TDP-43 Inhibitors; further: nearly all actives have a fitted effect of over 50% in size
- recorded-conditions: TDP-43 expressing yeast growth rescue, BacTiter-Glo, 24 h; series mostly up to 46.1 µM
In all, about 410,000 compounds went through this assay and about 7,200 (1.8%) were called active. Not shown: some 7% with an inconclusive outcome. The call rests on the fitted dose curve; in most records, active means well fitted activation curve with a large enough effect; inconclusive means small, poorly fitted or top-dose-only effect, or another doubt; inactive means no such curve, though single readings can be large or run the other way. The sample holds actives, similar compounds and a random draw of the others, so the mix is not that of the screen.
Outcome codes: active, inactive

compound	class
Cc1ccc(CCNC(=O)C2CCN(c3nnc(-n4cccc4CNc4ccc(C)cc4)s3)CC2)cc1	inactive
Cc1ccc(-c2ccc(CN3C(C(C)C)C(=O)N(Cc4cn(CCC5OCCCO5)nn4)CCS3(=O)=O)cc2)cc1 (centres undefined)	active
O=C(CCOc1ccccc1)N(Cc1cccnc1)c1nc2ccc(Cl)cc2s1	inactive
CC(C)CC1C(=O)N(Cc2cn(Cc3ccco3)nn2)CCS(=O)(=O)N1Cc1ccc(-c2ccc(Cl)c(Cl)c2)cc1 (centres undefined)	inactive
